- Measured Target: T1, OC43 S1B+C (S1B and S1C domains of the hCoV-OC43 spike glycoprotein) (human coronavirus OC43, UniProt P36334 321-675)
- T1 construct: also called recombinant OC43 S1B+C; recombinant OC43 protein; source: Expi293F, transfected, purified from supernatant (Ni-NTA IMAC, SEC); not shown: His6, C-terminal, cleaved
- T1 sequence (looked up): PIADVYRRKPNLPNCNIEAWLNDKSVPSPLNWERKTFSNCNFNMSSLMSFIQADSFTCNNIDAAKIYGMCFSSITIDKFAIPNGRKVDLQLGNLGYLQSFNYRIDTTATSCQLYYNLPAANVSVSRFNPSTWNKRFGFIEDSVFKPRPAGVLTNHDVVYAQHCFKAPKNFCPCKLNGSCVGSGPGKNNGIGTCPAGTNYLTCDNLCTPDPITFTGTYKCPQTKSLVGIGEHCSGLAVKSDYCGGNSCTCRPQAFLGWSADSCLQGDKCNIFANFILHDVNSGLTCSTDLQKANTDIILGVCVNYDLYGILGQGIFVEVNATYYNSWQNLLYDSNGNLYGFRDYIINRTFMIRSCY
- Procedure Details: BLI
- Experimental Setup: both partners purified

{"columns": ["Binder", "Measurement Units", "koff"],
 "data": [
  ["WNb 299 (VHH) VHH: QVQLQESGGGWVQPGGSLRLSCAASGFTFSNYAMGWFRQAPGKEREFVATISWSGGTTVYADSVKGRFTISRDNAKNTVYLQMNSLKPEDTAVYYCAAASDYGMVQMSDYEYDYWGQGTQVTVSS", "s⁻¹", 0.00103],
  ["WNb 289 (VHH) VHH: QVQLQESGGGLVQAGGSLRLSCAASGRTFSDYAMGWFRQAPGKEREFVATISWSGGTTYYADSVKGRFTISRDNAKNTVYLQMNSLKPEDTAVYYCAAVMDLGMLAADGYEYDYWGQGTQVTVSS", "s⁻¹", 0.000629],
  ["WNb 285 (VHH) VHH: QVQLQESGGGLVQAGGSLRLSCAASGRTFSDYAMGWFRQAPGKEREFVAAISWSGGTTYYADSVKGRFTISRDNAKNTVYLQMNSLTPEDTAVYYCAADYDYGWGRVRVSEYDYWGQGTQVTVSS", "s⁻¹", 0.000447],
  ["WNb 279 (VHH) VHH: QVQLQESGGGLVQPGGSLRLSCAASGRTFSDYFMGWFRQAPGKEREFVAAITWSGGSTYYTDSVKGRFTISRDNAKNTVYLQMNSLKPEDTAVYYCAGGLDMGWSRVALGEYDYWGQGTQVTVSS", "s⁻¹", 0.0086],
  ["WNb 287 (VHH) VHH: QLQESGGGLVQPGGSLRLSCAASGRTFSFSDYAMGWFRQAPGKEREFVASISWSGGTTYYADSVKGRFTISRDNAKNTVYLQMNSLKPEDTAVYYCAAEIDRGLLLHAVYEYDYWGQGTQVTVSS", "s⁻¹", 0.000933],
  ["WNb 291 (VHH) VHH: QVQLQESGGGLVQAGGSLRLSCAASGRTFSNYFMGWFRQAPGKEREFVAAISWSGGTTYYADSVKGRFTISRDNAKNTVYLQMNSLKPEDTAVYYCAANTDYGMGFVRAYEYDYWGQGTQVTVSS", "s⁻¹", 0.000527],
  ["WNb 298 (VHH) VHH: QVQLQESGGGLVQPGGSLRLSCAASGRTFSDYFMGWFRQAPGKEREFVASISWSGGTTYYADSVKGRFTISRDNAKNTVYLQMNSLKPEDTAVYYCAAEIDYGLGLHAAADFGSWGQGTQVTVSS", "s⁻¹", 0.000987],
  ["WNb 297 (VHH) VHH: QVQLQESGGGSVQAGGSLRLSCAASGRTFSDYAMGWFRQAPGKEREFVASISWSGGTTYYADSVKGRFTISRDNAKNTVYLQMNSLKPEDTAVYYCAADTDYGMGLITVPDFGSWGQGTQVTVSS", "s⁻¹", 0.00199]
]}
